target: E. coli DAla:D-Ala ligase (Ddl-B) (Escherichia coli, UniProt P07862); construct: purchased ProFoldin DDA100KE; test: Ddl-B enzymatic activity assay (inorganic phosphate, absorbance 650 nm); assay type: biochemical

# COMPOUND, Ddl-B inhibition in words
records = [
    ("O=C1c2ccccc2C(=O)c2c(O)ccc(O)c21", "moderately inhibited"),
    ("O=C(O)c1cc(O)c2c(c1)C(=O)c1cccc(O)c1C2=O", "more potent"),
    ("O=C1c2ccccc2C(=O)c2c1ccc(O)c2O", "moderately inhibited"),
    ("Cc1cc(O)c2c(c1)C(=O)c1cc(O)cc(O)c1C2=O", "more potent"),
]
